System: HCT116
assay-notes: TCF/Wnt firefly luciferase reporter signal relative to plate median (fraction of plate median); higher = higher Wnt reporter signal
condition-context: 10 µM; treatment time 24 h; reporter: TCF4/Wnt
Structures can show the parent of a compound that is named as a salt.
What TCF/Wnt firefly luciferase reporter signal was measured for each of the following?
// return a plain number; no unit text

The reported value for CCCCOc1c(C(=O)c2c(F)cc(C)cc2F)c[nH]c2nncc1-2 in terms of TCF/Wnt firefly luciferase reporter signal is 0.879

The reported value for CC1(C)CNc2cc(NC(=O)c3cccnc3NCc3ccncc3)ccc21 [Motesanib Diphosphate] in terms of TCF/Wnt firefly luciferase reporter signal is 1.19

The reported value for COc1cc(N2CCC(N3CCN(C)CC3)CC2)ccc1Nc1ncc(Cl)c(Nc2ccccc2S(=O)(=O)C(C)C)n1 in terms of TCF/Wnt firefly luciferase reporter signal is 1.2

The reported value for CN(C)CCOc1ccc(-c2nc(-c3ccncc3)c(-c3ccc4c(c3)CC/C4=N\O)[nH]2)cc1 in terms of TCF/Wnt firefly luciferase reporter signal is 1.19

The reported value for CCOc1cc2ncc(C#N)c(Nc3ccc(OCc4ccccn4)c(Cl)c3)c2cc1NC(=O)/C=C/CN(C)C [Neratinib (HKI-272)] in terms of TCF/Wnt firefly luciferase reporter signal is 0.53

The reported value for CN1CCN(c2ccc3nc(-c4c(N)c5c(F)cccc5[nH]c4=O)[nH]c3c2)CC1 [Dovitinib Dilactic acid (TKI258 Dilactic acid)] in terms of TCF/Wnt firefly luciferase reporter signal is 0.784

The reported value for COC(=O)Nc1ccc(-c2nc(N3CCOCC3)c3cnn(C4CCN(Cc5cccnc5)CC4)c3n2)cc1 in terms of TCF/Wnt firefly luciferase reporter signal is 0.595

The reported value for Cc1ccc(NC(=O)c2ccc(CN3CCN(C)CC3)cc2)cc1Nc1nccc(-c2cccnc2)n1 [Imatinib Mesylate] in terms of TCF/Wnt firefly luciferase reporter signal is 1.32

The reported value for C[C@H](NC(=O)/C(C#N)=C/c1cccc(Br)n1)c1ccccc1 in terms of TCF/Wnt firefly luciferase reporter signal is 0.0323

The reported value for Cc1cnc(Nc2ccc(OCCN3CCCC3)cc2)nc1Nc1cccc(S(=O)(=O)NC(C)(C)C)c1 in terms of TCF/Wnt firefly luciferase reporter signal is 1.31

The reported value for CCn1c(-c2nonc2N)nc2c(C#CC(C)(C)O)ncc(OC[C@H]3CCCNC3)c21 in terms of TCF/Wnt firefly luciferase reporter signal is 1.65

The reported value for O=c1cc(N2CCOCC2)oc2c(-c3cccc4c3sc3ccccc34)cccc12 in terms of TCF/Wnt firefly luciferase reporter signal is 1.73

The reported value for CNC(=O)CN1CCC(Oc2cc3c(Nc4cccc(Cl)c4F)ncnc3cc2OC)CC1 in terms of TCF/Wnt firefly luciferase reporter signal is 0.656

The reported value for COc1cc2ncnc(Nc3ccc(O)c(Br)c3)c2cc1OC in terms of TCF/Wnt firefly luciferase reporter signal is 1.11

The reported value for CNC(=O)c1cc(Oc2ccc(NC(=O)Nc3cc(C(C)(C)C)nn3-c3ccc4ncccc4c3)c(F)c2)ccn1 [DCC-2036 (Rebastinib)] in terms of TCF/Wnt firefly luciferase reporter signal is 0.895

The reported value for Cc1ccc(C(=O)Nc2ccc(CN3CCN(C)CC3)c(C(F)(F)F)c2)cc1C#Cc1cnc2cccnn12 in terms of TCF/Wnt firefly luciferase reporter signal is 0.292

The reported value for CCC[C@H](NC(=O)/C(C#N)=C/c1cccc(Br)n1)c1ccccc1 in terms of TCF/Wnt firefly luciferase reporter signal is 0.0353

The reported value for CO[C@@H](C(=O)N1Cc2[nH]nc(NC(=O)c3ccc(N4CCN(C)CC4)cc3)c2C1)c1ccccc1 in terms of TCF/Wnt firefly luciferase reporter signal is 0.388

The reported value for CNC(=O)c1cccc(-c2ccc3c(N4CCOC[C@@H]4C)nc(N4CCOC[C@@H]4C)nc3n2)c1 in terms of TCF/Wnt firefly luciferase reporter signal is 0.549

The reported value for CO[C@H]1C[C@@H]2CC[C@@H](C)[C@@](O)(O2)C(=O)C(=O)N2CCCC[C@H]2C(=O)O[C@H]([C@H](C)C[C@@H]2CC[C@@H](OP(C)(C)=O)[C@H](OC)C2)CC(=O)[C@H](C)/C=C(\C)[C@@H](O)[C@@H](OC)C(=O)[C@H](C)C[C@H](C)/C=C/C=C/C=C/1C [Deforolimus (Ridaforolimus)] in terms of TCF/Wnt firefly luciferase reporter signal is 0.799

The reported value for CNC(=O)c1cc(Oc2ccc(NC(=O)Nc3ccc(Cl)c(C(F)(F)F)c3)cc2)ccn1 [Sorafenib (Nexavar)] in terms of TCF/Wnt firefly luciferase reporter signal is 1.06

The reported value for CC(C)(C)c1cc(NC(=O)Nc2ccc(-c3cn4c(n3)sc3cc(OCCN5CCOCC5)ccc34)cc2)no1 [Quizartinib (AC220)] in terms of TCF/Wnt firefly luciferase reporter signal is 1.22

The reported value for Cc1cc(Nc2cc(CN3CCOCC3)c3nc(C)c(Cc4ccc(Cl)cc4F)n3n2)n[nH]1 in terms of TCF/Wnt firefly luciferase reporter signal is 0.826

The reported value for C[C@@H](Oc1cc(-n2cnc3ccc(CN4CCN(C)CC4)cc32)sc1C(N)=O)c1ccccc1C(F)(F)F in terms of TCF/Wnt firefly luciferase reporter signal is 0.335

The reported value for Nc1cccc(-c2cc3c(Oc4cccc(O)c4)ncnc3[nH]2)c1 in terms of TCF/Wnt firefly luciferase reporter signal is 1.28

The reported value for CN1CCN(CCOc2cc(OC3CCOCC3)c3c(Nc4c(Cl)ccc5c4OCO5)ncnc3c2)CC1 [Saracatinib (AZD0530)] in terms of TCF/Wnt firefly luciferase reporter signal is 0.799

The reported value for Cn1cc(-c2ccc3nnc(Sc4ccc5ncccc5c4)n3n2)cn1 in terms of TCF/Wnt firefly luciferase reporter signal is 1.41

The reported value for COc1ccc(-c2ccc3c(N4CCOCC4)nc(N4C[C@@H](C)O[C@@H](C)C4)nc3n2)cc1CO in terms of TCF/Wnt firefly luciferase reporter signal is 0.432

The reported value for NC1(Cc2ccc(Cl)cc2)CCN(c2ncnc3[nH]ccc23)CC1 in terms of TCF/Wnt firefly luciferase reporter signal is 1.02

The reported value for Cc1c(CN2CCN(C(=O)[C@H](C)O)CC2)sc2c(N3CCOCC3)nc(-c3cnc(N)nc3)nc12 in terms of TCF/Wnt firefly luciferase reporter signal is 0.577

The reported value for Cc1ccc(NC(=O)c2ccc(CN3CCN(C)CC3)cc2)cc1Nc1nccc(-c2cccnc2)n1 [Imatinib (Gleevec)] in terms of TCF/Wnt firefly luciferase reporter signal is 1.42

The reported value for O=C(O)c1ccc2c(c1)nc(Nc1cccc(Cl)c1)c1ccncc12 [cx-4945 (Silmitasertib)] in terms of TCF/Wnt firefly luciferase reporter signal is 0.627
